Provenance of the data: patent US8084457B2

# Target Or Test System: CDK2/CyclinA (Homo sapiens, UniProt P24941)
# Test Description: Kinase assay determining CDK2/CyclinA activity
# Condition Parameters: read-out: CDK2 (activity range)
# Protocol: Kinase Assays Determining CDK2/CyclinA and CDK5/p35 Activity: Kinase assays were performed as described by the manufacturers recommendations (Proqinase for CDK2/CyclinA and Upsate for CDK5/p35).
Experimental Endpoint: IC50

Before answering, review these 4 worked examples.
{"Compound": "C=Cc1ccccc1-c1cc(Nc2ccc(NC(=O)C(C)(C)C)cc2)ncn1", "IC50": "10000 to 250000 nM"}
{"Compound": "COc1ccccc1-c1cc(Nc2ccc(NC(C)=O)cc2)ncn1", "IC50": "1 to 1000 nM"}
{"Compound": "NCCCOc1ccccc1-c1cc(Nc2ccc(NC(=O)c3ccc(N)cc3)cc2)ncn1", "IC50": "1000 to 10000 nM"}
{"Compound": "COc1ccccc1-c1cc(Nc2cccc(N)c2)ncn1", "IC50": "1 to 1000 nM"}

Batch lookup, IC50 per entry.
1. CCc1ccccc1-c1cc(Nc2ccc(NC(=O)C(C)(C)C)cc2)ncn1
2. COc1ccc(-c2cc(Nc3ccc(C)c(NS(C)(=O)=O)c3)ncn2)cc1
3. Cc1ccc(Nc2cc(-c3ccccc3O)ncn2)cc1NS(C)(=O)=O

Result:
1: 1000 to 10000 nM; 2: 1 to 1000 nM; 3: 1 to 1000 nM

###

# Target Or Test System: CDK9/Cyclin T1 (Homo sapiens, UniProt P50750)
# Sequence (P50750 whole entry): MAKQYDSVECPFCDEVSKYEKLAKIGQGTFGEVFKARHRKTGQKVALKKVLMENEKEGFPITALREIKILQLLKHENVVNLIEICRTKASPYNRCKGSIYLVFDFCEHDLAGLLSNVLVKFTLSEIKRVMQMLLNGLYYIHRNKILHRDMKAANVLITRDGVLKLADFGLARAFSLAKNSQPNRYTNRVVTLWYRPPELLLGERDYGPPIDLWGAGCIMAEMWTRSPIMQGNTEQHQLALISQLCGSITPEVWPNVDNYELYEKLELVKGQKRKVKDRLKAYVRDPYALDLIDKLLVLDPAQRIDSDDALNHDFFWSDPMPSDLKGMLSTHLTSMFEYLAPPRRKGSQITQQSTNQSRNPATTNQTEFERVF
# Sequence (O60563 whole entry partner): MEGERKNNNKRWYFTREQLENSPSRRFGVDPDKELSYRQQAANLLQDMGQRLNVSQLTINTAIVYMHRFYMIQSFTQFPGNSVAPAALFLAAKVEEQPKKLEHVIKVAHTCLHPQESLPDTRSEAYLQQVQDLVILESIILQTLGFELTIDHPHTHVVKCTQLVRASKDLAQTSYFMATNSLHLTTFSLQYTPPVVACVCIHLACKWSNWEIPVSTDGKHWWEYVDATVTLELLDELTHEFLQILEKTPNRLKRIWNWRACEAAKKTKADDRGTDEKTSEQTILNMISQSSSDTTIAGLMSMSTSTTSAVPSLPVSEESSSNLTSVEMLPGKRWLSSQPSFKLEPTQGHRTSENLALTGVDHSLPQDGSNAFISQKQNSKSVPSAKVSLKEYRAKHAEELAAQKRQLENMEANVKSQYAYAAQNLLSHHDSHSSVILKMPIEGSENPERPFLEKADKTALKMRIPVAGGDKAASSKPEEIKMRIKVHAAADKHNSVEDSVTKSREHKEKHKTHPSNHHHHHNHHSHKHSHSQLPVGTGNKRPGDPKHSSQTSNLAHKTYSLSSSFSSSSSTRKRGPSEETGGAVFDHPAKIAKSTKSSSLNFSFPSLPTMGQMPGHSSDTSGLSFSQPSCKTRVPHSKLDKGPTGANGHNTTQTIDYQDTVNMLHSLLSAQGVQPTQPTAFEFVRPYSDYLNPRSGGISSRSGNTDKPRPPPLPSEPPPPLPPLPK
# Test Description: Kinase assay using CDK9/Cyclin T1
# Condition Parameters: read-out: CDK9 (activity range)
pIC50: −log10 of the molar value.
Would you mind telling me the reported pIC50 of each entry?

Before answering, review these 10 worked examples.
{"Compound": "COc1ccccc1-c1cc(Nc2ccc(NC(=O)Cc3ccccc3)cc2)ncn1 [(71)]", "Obs Value": "6.00 to 9.00"}
{"Compound": "COC(=O)c1ccc(Nc2cc(-c3ccccc3OC)ncn2)cc1 [(15)]", "Obs Value": "6.00 to 9.00"}
{"Compound": "Cc1ccc(Nc2cc(-c3cccc(N)c3)ncn2)cc1NS(=O)(=O)c1ccccc1 [(109)]", "Obs Value": "6.00 to 9.00"}
{"Compound": "COc1ccc(OC)c(-c2cc(Nc3ccc(NC(=O)c4ccc(N)cc4)cc3)ncn2)c1 [(57)]", "Obs Value": "3.60 to 5.00"}
{"Compound": "COc1ccc(-c2cc(Nc3ccc(NC(=O)[C@@H]4CCCCN4)cc3)ncn2)cc1 [(167)]", "Obs Value": "5.00 to 6.00"}
{"Compound": "COc1ccccc1-c1cc(Nc2ccc(N)cc2C)ncn1 [(123)]", "Obs Value": "5.00 to 6.00"}
{"Compound": "COc1ccccc1-c1cc(Nc2ccc(NC(=O)[C@@H]3CCCCN3)cc2)ncn1 [(30)]", "Obs Value": "6.00 to 9.00"}
{"Compound": "COc1ccccc1-c1cc(Nc2ccc(-c3nc4ccccc4[nH]3)cc2)ncn1 [(63)]", "Obs Value": "6.00 to 9.00"}
{"Compound": "Cc1ccc(S(=O)(=O)Nc2ccc(Nc3cc(Cl)ncn3)cc2)cc1 [(24)]", "Obs Value": "3.60 to 5.00"}
{"Compound": "COCc1ccccc1-c1cc(Nc2ccc(C(=O)NC3CCCCC3N)cc2)ncn1 (stereo not drawn) [(210)]", "Obs Value": "5.00 to 6.00"}

Batch lookup, pIC50 per entry.
1. COc1ccccc1-c1cc(Nc2ccc(C(=O)N[C@@H]3CCCC[C@H]3O)cc2)ncn1 (racemic) [(135)]
2. COC(=O)c1cccc(-c2cc(Nc3ccc(C(=O)N[C@@H]4CCCC[C@H]4N)cc3)ncn2)c1 (racemic) [(201)]
3. COc1ncccc1-c1cc(Nc2ccc(NC(=O)[C@@H]3CCCCN3)cc2)ncn1 [(171)]
4. COc1ccccc1-c1cc(Nc2ccc(NC(=O)[C@@H]3CCCCN3C(=O)OC(C)(C)C)cc2)ncn1 [(29)]

Result:
1. 6.00 to 9.00
2. 5.00 to 6.00
3. 6.00 to 9.00
4. 6.00 to 9.00
